meta.source: ChEMBL document CHEMBL3351355

- tested.on: Alpha-1B adrenergic receptor (Homo sapiens)
- Sequence (P35368 whole entry): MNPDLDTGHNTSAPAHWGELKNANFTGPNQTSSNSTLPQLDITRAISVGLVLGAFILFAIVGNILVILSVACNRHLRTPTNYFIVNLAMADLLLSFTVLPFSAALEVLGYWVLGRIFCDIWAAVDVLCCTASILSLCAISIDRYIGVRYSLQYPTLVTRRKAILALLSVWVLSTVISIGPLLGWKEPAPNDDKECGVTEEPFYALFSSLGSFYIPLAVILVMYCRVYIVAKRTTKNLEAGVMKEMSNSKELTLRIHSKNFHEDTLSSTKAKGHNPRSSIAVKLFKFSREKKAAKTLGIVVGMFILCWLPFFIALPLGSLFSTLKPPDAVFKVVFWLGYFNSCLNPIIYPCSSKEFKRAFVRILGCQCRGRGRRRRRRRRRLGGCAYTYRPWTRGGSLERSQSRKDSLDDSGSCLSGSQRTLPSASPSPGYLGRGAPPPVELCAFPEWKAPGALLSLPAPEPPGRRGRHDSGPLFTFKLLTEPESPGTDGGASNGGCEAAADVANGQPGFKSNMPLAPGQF
- measurement.description: Displacement of [3H]prazosin from human recombinant alpha1B adrenoceptor expressed in CHO cells after 30 mins by liquid scintillation counting
- Type: cell-based
reported.endpoint: pKi
Answers are plain numbers, as −log10 of the molar value.

compound	pKi
COc1ccccc1N1CCN(CC2COC3(CCN(S(=O)(=O)c4ccccc4)CC3)O2)CC1 (configuration not stated)	7.07
COc1ccccc1N1CCN(CC2COC3(CCN(S(=O)(=O)c4ccc(OC(F)(F)F)cc4)CC3)O2)CC1 (configuration not stated)	6.83
COc1ccccc1N1CCN(CC2COC3(CCN(S(=O)(=O)c4cccc([N+](=O)[O-])c4)CC3)O2)CC1 (configuration not stated)	7.16
COc1ccccc1N1CCN(CC2COC3(CCN(c4ccccn4)CC3)O2)CC1 (configuration not stated)	6.00
COc1ccccc1N1CCN(CC2COC3(CCN(S(=O)(=O)c4ccc(Cl)cc4)CC3)O2)CC1 (configuration not stated)	7.16

Hey, can you go through the list below and give me pKi for every item?
1. COc1ccccc1N1CCN(CC2COC3(CCOCC3)O2)CC1 (configuration not stated)
2. COc1ccccc1N1CCN(CC2COC3(CCN(C(=O)C(F)(F)F)CC3)O2)CC1 (configuration not stated)

(A)
[6.49, 6.00]

###

- tested.on: 5-hydroxytryptamine receptor 1A (Homo sapiens)
- measurement.description: Agonist activity at human recombinant 5-HT1A receptor expressed in HeLa cells after 30 mins by [35S]GTPgammaS binding assay
- Format: functional, cell-based
For each of the compounds below, state its pD2.
Numbers only.

compound	reported.endpoint	endpoint.value
COc1ccccc1N1CCN(CC2COC3(CCN(c4ccccc4)CC3)O2)CC1 (stereo not drawn)	pD2	7.14
COc1ccccc1N1CCN(CC2COC3(CCN(C(=O)Nc4ccccc4)CC3)O2)CC1 (stereo not drawn)	pD2	7.22
COc1ccccc1N1CCN(CC2COC3(CCOCC3)O2)CC1 (stereo not drawn)	pD2	6.82
COc1ccccc1N1CCN(CC2COC3(CCSCC3)O2)CC1 (stereo not drawn)	pD2	7.48
COc1ccccc1N1CCN(CC2COC3(CCN(C(=O)c4ccco4)CC3)O2)CC1 (stereo not drawn)	pD2	7.12

Give me pD2 for each of these compounds, listed below.
1. COc1ccccc1N1CCN(CC2COC3(CCN(S(=O)(=O)c4ccc([N+](=O)[O-])cc4)CC3)O2)CC1 (stereo not drawn)
2. COc1ccccc1N1CCN(CC2COC3(CCN(S(=O)(=O)c4ccc(C)cc4)CC3)O2)CC1 (stereo not drawn)
3. COc1ccccc1N1CCN(CC2COC3(CCCCC3)O2)CC1 (stereo not drawn)
4. COc1ccccc1N1CCN(CC2COC3(CCN(c4ccccn4)CC3)O2)CC1 (stereo not drawn)
5. COc1ccccc1N1CCN(CC2COC3(CCN(C(=O)C4CCCCC4)CC3)O2)CC1 (stereo not drawn)
6. COc1ccccc1N1CCN(CC2COC3(CCN(Cc4ccccc4)CC3)O2)CC1 (stereo not drawn)
7. COc1ccccc1N1CCN(CC2COC3(CC[S+]([O-])CC3)O2)CC1 (stereo not drawn)

(A)
1: 7.65; 2: 7.33; 3: 8.61; 4: 6.49; 5: 7.29; 6: 7.21; 7: 8.13

(Q) Need pD2 of CCCCNC(=O)N1CCC2(CC1)OCC(CN1CCN(c3ccccc3OC)CC1)O2 (stereo not drawn) , thanks.
(A) 6.53
